Reported GI50 at 72 h by item:
- Run description: Antiproliferative activity against human DLD1 cells expressing mutant p53 after 3 days by luminescent cell viability assay
- Assay type: cell-based, DLD-1
Quick note: give the figure in µM, leave out the unit.

Exercise: Record request: GI50 at 72 h value, item CC(C)C1=C(C(=O)N2[C@H](C)CC[C@H]2C(=O)N2CCN(C)C3(CC3)C2)SC2=N[C@@](C)(c3ccc(Cl)cc3)[C@@H](c3ccc(Cl)cc3)N21
Solution: 17.2

Exercise: Repeat with CC(C)C1=C(C(=O)N2[C@H](C)CC[C@H]2C(=O)N2CCNC3(CC3)C2)SC2=N[C@@](C)(c3ccc(Cl)cc3)[C@@H](c3ccc(Cl)c(F)c3)N21
Solution: 16.7

Exercise: Repeat with CC(C)C1=C(C(=O)N2[C@H](C)CC[C@H]2C(=O)N2CCNC3(CC3)C2)SC2=N[C@@](C)(c3ccc(Cl)cc3)[C@@H](c3ccc(Cl)cc3)N21
Solution: 16.2

---

- Run description: Plasma concentration in mouse at 100 mg/kg, po after 6 hrs
- Type: ADME, organism-based
- Design: dose 100 mg/kg, route oral
Value kind: concentration at 6 h (ng/mL)
Quick note: give the figure in ng/mL, leave out the unit.

Exercise: Record request: concentration at 6 h value, item CC[C@@H]1CNC2(CC2)CN1C(=O)[C@@H]1C[C@@H](F)CN1C(=O)C1=C(C(C)C)N2C(=N[C@@](C)(c3ccc(Cl)nc3)[C@H]2c2ccc(Cl)c(F)c2)S1
Solution: 22300

---

- Run description: Plasma concentration in mouse at 50 mg/kg, po after 24 hrs
- Type: ADME, organism-based
- Parameters: dose 50 mg/kg, route oral
Value kind: concentration at 24 h (ng/mL)
Quick note: give the figure in ng/mL, leave out the unit.

Exercise: Record request: concentration at 24 h value, item CC[C@@H]1CNC2(CC2)CN1C(=O)[C@@H]1C[C@@H](F)CN1C(=O)C1=C(C(C)C)N2C(=N[C@@](C)(c3ccc(Cl)nc3)[C@H]2c2ccc(Cl)c(F)c2)S1
Solution: 20

---

- Run description: Cmax in mouse at 25 mg/kg, po
- Format: ADME, organism-based
- Set-up: dose 25 mg/kg, route oral
- Run parameters: in vivo
Value kind: Cmax (ng/mL)
Quick note: give the figure in ng/mL, leave out the unit.

Exercise: Record request: Cmax value, item CC[C@@H]1CNC2(CC2)CN1C(=O)[C@@H]1C[C@@H](F)CN1C(=O)C1=C(C(C)C)N2C(=N[C@@](C)(c3ccc(Cl)nc3)[C@H]2c2ccc(Cl)c(F)c2)S1
Solution: 6000
